Source listed as the supplement of paper PMC3334620.

Target: Cad1 (UniProt P24813)
Sequence: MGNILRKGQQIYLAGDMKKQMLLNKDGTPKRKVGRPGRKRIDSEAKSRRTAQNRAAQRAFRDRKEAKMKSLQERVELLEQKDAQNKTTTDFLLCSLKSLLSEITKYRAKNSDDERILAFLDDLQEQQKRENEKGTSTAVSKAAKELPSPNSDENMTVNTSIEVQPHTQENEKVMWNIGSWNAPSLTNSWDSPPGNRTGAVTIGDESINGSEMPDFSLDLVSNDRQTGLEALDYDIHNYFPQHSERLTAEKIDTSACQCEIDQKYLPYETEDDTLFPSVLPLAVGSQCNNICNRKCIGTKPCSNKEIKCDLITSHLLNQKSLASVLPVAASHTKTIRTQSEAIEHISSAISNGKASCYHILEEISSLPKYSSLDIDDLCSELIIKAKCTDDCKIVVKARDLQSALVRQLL
Experiment: PBM E-score (8-mer binding enrichment) (E-score (-0.5 to 0.5)); higher = stronger / more preferred TF binding
Conditions: protein concentration: 100 nM; construct: GST-full length
The full ranking holds about 33,000 sequences; the median of “E-score (-0.5 to 0.5)” is about -0.0014, and the highest 2% start at about 0.25. This is one part of a sample in which the highest values are shown more often than they occur.
So basically, the class depends on measured PBM E-score, and the ranges are low class (below 0.06), middle class (0.06 to below 0.2), high class (0.2 or more)

sequence | answer-label
AAAAATTA | high class
ACATAATA | middle class
AAAAAATT | middle class
GCGCGTCA | middle class
ACGTAAGT | low class
TAACCCGA | low class
ATGAAAAT | middle class
AGCTATCA | middle class
AGTTCATA | middle class
GGTATACA | low class
ACTGGTCA | low class
AATAACGG | high class
CTTACATA | high class
CGATCCGA | high class
ATGAACTA | middle class
GCAAATCA | middle class
GATATATC | high class
CATATATA | middle class
GAATTCGC | low class
CTAGGTGC | low class
ACGTAATA | high class
CTGCATTA | low class
AACCCCGC | low class
ATAATGAA | middle class
ATAAGCCA | middle class
ACGTAATC | high class
ACGAAAAC | high class
ATTGGCTC | low class
ATGCATCA | high class
AACCTTGG | low class
ATACGTAT | high class
ATTACAGA | middle class
GCTACATA | low class
CGCAACAA | middle class
ACAGCATG | low class
CGTTAGCC | middle class
CAAAATTA | middle class
ATTAACAC | high class
ACAAATCA | high class
GGAAATTA | high class
TATATGGA | low class
ACGCATTA | middle class
CGCCGGCC | low class
GATATACA | middle class
CAATTCGA | low class
AATTCCAG | high class
ACGTACTC | low class
AATTCCAC | middle class
AGTTCATG | high class
ACTACATA | low class
GGCCGTTA | middle class
TGTATACA | high class
CACATATA | middle class
GAAAATTA | middle class
AGTTTCCG | middle class
ACGAAAAA | low class

* * *

sequences and their reported PBM E-score
Molecular target: Cad1 (UniProt P24813)
Sequence: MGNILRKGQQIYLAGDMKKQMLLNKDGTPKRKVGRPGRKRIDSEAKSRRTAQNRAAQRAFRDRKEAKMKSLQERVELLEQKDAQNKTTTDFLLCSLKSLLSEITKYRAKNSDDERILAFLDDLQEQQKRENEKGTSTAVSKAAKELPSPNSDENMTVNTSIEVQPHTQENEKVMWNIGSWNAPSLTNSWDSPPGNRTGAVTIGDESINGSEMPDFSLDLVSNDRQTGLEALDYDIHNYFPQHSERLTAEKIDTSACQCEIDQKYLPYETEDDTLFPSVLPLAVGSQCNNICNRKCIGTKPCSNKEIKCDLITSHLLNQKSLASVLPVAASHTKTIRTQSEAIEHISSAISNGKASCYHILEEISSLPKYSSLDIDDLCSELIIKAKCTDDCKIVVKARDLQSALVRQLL
Assay: PBM E-score (8-mer binding enrichment) (E-score (-0.5 to 0.5)); higher = stronger / more preferred TF binding
Details: protein concentration: 100 nM; construct: GST-full length
The full ranking holds about 33,000 sequences; the median of “E-score (-0.5 to 0.5)” is about -0.0014, and the highest 2% start at about 0.25. The list comes from a sample in which the highest values are over-represented; it also holds close analogues and randomly drawn sequences.

sequence | PBM E-score
CGTGATCA | 0.123
GGTTAGTA | 0.219
ATACACCA | 0.12
ATTTAGTC | 0.18
AGCAGATA | -0.0464
CATCCTGC | 0.0554
CATTAGAA | 0.11
AATTAGTG | 0.316
GGAAGAAA | -0.0518

* * *

Reported PBM E-score values for the following sequences.
Target: Cad1 (UniProt P24813)
Sequence: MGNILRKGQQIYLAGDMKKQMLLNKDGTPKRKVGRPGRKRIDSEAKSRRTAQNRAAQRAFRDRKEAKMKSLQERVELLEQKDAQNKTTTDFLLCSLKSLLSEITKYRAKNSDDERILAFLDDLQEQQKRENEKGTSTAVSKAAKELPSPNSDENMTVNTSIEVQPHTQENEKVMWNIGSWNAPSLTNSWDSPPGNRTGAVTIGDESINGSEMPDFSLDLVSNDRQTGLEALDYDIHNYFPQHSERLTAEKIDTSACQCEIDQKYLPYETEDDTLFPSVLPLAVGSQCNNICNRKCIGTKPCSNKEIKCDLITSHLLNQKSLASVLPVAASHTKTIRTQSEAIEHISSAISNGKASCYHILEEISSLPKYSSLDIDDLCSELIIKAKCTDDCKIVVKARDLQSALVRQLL
Experiment: PBM E-score (8-mer binding enrichment) (E-score (-0.5 to 0.5)); higher = stronger / more preferred TF binding
Settings: protein concentration: 100 nM; construct: GST-full length
The full ranking holds about 33,000 sequences; the median of “E-score (-0.5 to 0.5)” is about -0.0014, and the highest 2% start at about 0.25. Shown is part of a subset that was picked to be rich in the highest values.
experimental-endpoint: PBM E-score

sequence | target-entity | experimental-endpoint | recorded-result
GGGATGCA | Cad1 (UniProt P24813) | PBM E-score | -0.167
CACACTCG | Cad1 (UniProt P24813) | PBM E-score | 0.0692
ATTCCCCG | Cad1 (UniProt P24813) | PBM E-score | -0.0432
AGCCGCTG | Cad1 (UniProt P24813) | PBM E-score | -0.0754
GATAAATA | Cad1 (UniProt P24813) | PBM E-score | 0.123
CAAATATA | Cad1 (UniProt P24813) | PBM E-score | -0.0118
CTCGGGGA | Cad1 (UniProt P24813) | PBM E-score | -0.0482
ATTATTCC | Cad1 (UniProt P24813) | PBM E-score | 0.131
ATTTCCGA | Cad1 (UniProt P24813) | PBM E-score | 0.0803
ACTTATTA | Cad1 (UniProt P24813) | PBM E-score | 0.192
ACAAATTA | Cad1 (UniProt P24813) | PBM E-score | 0.295
ATTCCCGG | Cad1 (UniProt P24813) | PBM E-score | 0.296
AAAATATC | Cad1 (UniProt P24813) | PBM E-score | 0.198
AGGCCGAA | Cad1 (UniProt P24813) | PBM E-score | -0.0603
GAAATTCA | Cad1 (UniProt P24813) | PBM E-score | 0.169
ACCCGTTC | Cad1 (UniProt P24813) | PBM E-score | -0.0216
ATTTCCGG | Cad1 (UniProt P24813) | PBM E-score | 0.264
ATTTATTA | Cad1 (UniProt P24813) | PBM E-score | 0.186
GAGCCCAC | Cad1 (UniProt P24813) | PBM E-score | -0.1
ATTATTCA | Cad1 (UniProt P24813) | PBM E-score | 0.26
CAAGCACA | Cad1 (UniProt P24813) | PBM E-score | -0.0831
TAAGCACA | Cad1 (UniProt P24813) | PBM E-score | 0.295
CCGAAGAA | Cad1 (UniProt P24813) | PBM E-score | 0.00754
GAATTCCA | Cad1 (UniProt P24813) | PBM E-score | 0.117
AGCAACCA | Cad1 (UniProt P24813) | PBM E-score | 0.0389
